- TARGET OR TEST SYSTEM: 5-hydroxytryptamine receptor 1D (Homo sapiens)
- ASSAY NAME: The compound was tested for binding affinity against 5-HT1D receptor
- CONDITION NOTES: Oryctolagus cuniculus
MEASURED PROPERTY: p[A50]
Form field (numeric): enter value without unit.

                                   molecule  data_value
0  CS(=O)(=O)Nc1cccc(CC2NC(=O)N(CCc3ccc4[nH]cc(CCN)c4c3)C2=O)c1 (stereo not drawn)         7.2
1  CS(=O)(=O)Nc1ccc(CC2NC(=O)N(CCc3ccc4[nH]cc(CCN)c4c3)C2=O)cc1 (stereo not drawn)         7.4

Let us examine a further case.
Give me measured p[A50], please, for this molecule: CN(C)CCc1c[nH]c2ccc(CCN3C(=O)NC(Cc4ccc([N+](=O)[O-])cc4)C3=O)cc12 (stereo not drawn)
6.8

From: ChEMBL document CHEMBL1128543
